Tested on: biotinyl-Met-oxazolone
test-protocol: self-aminoacylation, catalytic enhancement (BMO) (fold over background); higher = more active; k-Seq, kA / k0A0; sequences stand for … in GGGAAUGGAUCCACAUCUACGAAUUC…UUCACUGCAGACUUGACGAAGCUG
Fewer inactive variants are shown than the library holds.
metric-name: self-aminoacylation
API doc: respond with a numeric literal and nothing else, no unit.

Check out these entries, answers already filled in.
INSERT INTO measurements (construct_sequence, metric_name, measured_number) VALUES
  ('AUUAGCCUGGUCAUCGAGCGA [Fam2.1 aminoacylation ribozyme variant]', 'self-aminoacylation', 2.52),
  ('AAUUAUGCUAAUAGUCGCAAG [Fam3.1 aminoacylation ribozyme variant]', 'self-aminoacylation', 1.46),
  ('AUUAUCCUUGUCAUCGAGUGA [Fam2.1 aminoacylation ribozyme variant]', 'self-aminoacylation', 6.66),
  ('CUUCUUCAAACACUCGGUCUG [Fam1A.1 aminoacylation ribozyme variant]', 'self-aminoacylation', 1.04),
  ('CUACUUCGAAGAAUCGGUCUG [Fam1A.1 aminoacylation ribozyme variant]', 'self-aminoacylation', 0.933);

For the sequence shown here, CCACAAUUCAAGCAAUGGGUC [Fam1B.1 aminoacylation ribozyme variant] , give the reported self-aminoacylation. 1.13

Queued: AAGUUGACUAAUAGUCGCAAG [Fam3.1 aminoacylation ribozyme variant] 0.839

Queued: AUUCAGCAAGGUCAUCGGGUG [Fam2.2 aminoacylation ribozyme variant] 6.23

Queued: AUCACCCUGGUCAGCGAGUGA [Fam2.1 aminoacylation ribozyme variant] 8.22

Queued: CUACUUCAAACAAUUGGCCUG [Fam1A.1 aminoacylation ribozyme variant] 1.11

Queued: AUUACCCUGGUCAGCAAGUGA [Fam2.1 aminoacylation ribozyme variant] 4.16
